Target: Poly [ADP-ribose] polymerase 2 (Homo sapiens)
Classify as follows. Reported ΔTm greater than or equal to 0.4 °C: 1. Reported ΔTm below: 0.

SMILES_REPR: O=C(CCCc1nc2ccccc2c(=O)[nH]1)N[C@H](CO)c1ccccc1
GROUP_LABEL: 1
--
SMILES_REPR: C[C@H](NC(=O)CCCc1nc2ccccc2c(=O)[nH]1)c1ccccc1
GROUP_LABEL: 0
--
SMILES_REPR: C[C@@H](NC(=O)Cc1nc2ccccc2c(=O)[nH]1)c1ccccc1
GROUP_LABEL: 0
--
SMILES_REPR: C[C@H](NC(=O)CCc1nc2ccccc2c(=O)[nH]1)c1ccccc1F
GROUP_LABEL: 0
--
SMILES_REPR: O=C(CCc1nc2ccccc2c(=O)[nH]1)N[C@H](CO)c1ccccc1
GROUP_LABEL: 1
--
SMILES_REPR: COc1ccccc1CNC(=O)CCc1nc(O)c2ccccc2n1
GROUP_LABEL: 1
--
SMILES_REPR: O=C(NCc1ccccc1)NCc1nc2ccccc2c(=O)[nH]1
GROUP_LABEL: 0
--
SMILES_REPR: O=C(CCCc1nc2ccccc2c(=O)[nH]1)N[C@H]1CCc2ccccc21
GROUP_LABEL: 1
--
SMILES_REPR: C[C@@H](NC(=O)CCCc1nc2ccccc2c(=O)[nH]1)c1ccccc1
GROUP_LABEL: 0
--
SMILES_REPR: C[C@H](NC(=O)CCc1nc2ccccc2c(=O)[nH]1)c1cccc(C(F)(F)F)c1
GROUP_LABEL: 0

###

Target: Poly [ADP-ribose] polymerase 1 (Homo sapiens)
QUANTITY_MEASURED: IC50 (nM)

SMILES_REPR: O=C(CCc1nc2ccccc2c(=O)[nH]1)N[C@H]1CCc2ccccc21
TESTED_TARGET: Poly [ADP-ribose] polymerase 1 (Homo sapiens)
QUANTITY_MEASURED: IC50
UNIT_SPEC: nM
OBSERVED_MEASUREMENT: 510

###

In this section, each of the compounds is paired with its reported ΔTm.
Species on record: Homo sapiens
Experiment: Binding affinity to […] (unknown origin) assessed as change in melting temperature by thermal stabilization assay
QUANTITY_MEASURED: ΔTm

SMILES_REPR: O=C(CCc1nc2ccccc2c(=O)[nH]1)N1CCc2ccccc2C1
OBSERVED_MEASUREMENT: 0.14 °C
//
SMILES_REPR: O=C(CCc1nc2ccccc2c(=O)[nH]1)N[C@H]1CCc2ccccc21
OBSERVED_MEASUREMENT: 0.84 °C
//
SMILES_REPR: CCC(=O)[C@H](Cc1ccccc1)NC(=O)CCc1nc2ccccc2c(=O)[nH]1
OBSERVED_MEASUREMENT: 0.07 °C
//
SMILES_REPR: O=C(CCCc1nc2ccccc2c(=O)[nH]1)N[C@@H]1CCc2ccccc21
OBSERVED_MEASUREMENT: 1.2 °C

###

Read-out record for Poly [ADP-ribose] polymerase 1 (Homo sapiens, UniProt P09874): ΔTm

COMPOUND: O=C(CCc1nc(O)c2ccccc2n1)NCc1ccccn1
TESTED_TARGET: Poly [ADP-ribose] polymerase 1 (Homo sapiens, UniProt P09874)
Sequence (P09874 whole entry): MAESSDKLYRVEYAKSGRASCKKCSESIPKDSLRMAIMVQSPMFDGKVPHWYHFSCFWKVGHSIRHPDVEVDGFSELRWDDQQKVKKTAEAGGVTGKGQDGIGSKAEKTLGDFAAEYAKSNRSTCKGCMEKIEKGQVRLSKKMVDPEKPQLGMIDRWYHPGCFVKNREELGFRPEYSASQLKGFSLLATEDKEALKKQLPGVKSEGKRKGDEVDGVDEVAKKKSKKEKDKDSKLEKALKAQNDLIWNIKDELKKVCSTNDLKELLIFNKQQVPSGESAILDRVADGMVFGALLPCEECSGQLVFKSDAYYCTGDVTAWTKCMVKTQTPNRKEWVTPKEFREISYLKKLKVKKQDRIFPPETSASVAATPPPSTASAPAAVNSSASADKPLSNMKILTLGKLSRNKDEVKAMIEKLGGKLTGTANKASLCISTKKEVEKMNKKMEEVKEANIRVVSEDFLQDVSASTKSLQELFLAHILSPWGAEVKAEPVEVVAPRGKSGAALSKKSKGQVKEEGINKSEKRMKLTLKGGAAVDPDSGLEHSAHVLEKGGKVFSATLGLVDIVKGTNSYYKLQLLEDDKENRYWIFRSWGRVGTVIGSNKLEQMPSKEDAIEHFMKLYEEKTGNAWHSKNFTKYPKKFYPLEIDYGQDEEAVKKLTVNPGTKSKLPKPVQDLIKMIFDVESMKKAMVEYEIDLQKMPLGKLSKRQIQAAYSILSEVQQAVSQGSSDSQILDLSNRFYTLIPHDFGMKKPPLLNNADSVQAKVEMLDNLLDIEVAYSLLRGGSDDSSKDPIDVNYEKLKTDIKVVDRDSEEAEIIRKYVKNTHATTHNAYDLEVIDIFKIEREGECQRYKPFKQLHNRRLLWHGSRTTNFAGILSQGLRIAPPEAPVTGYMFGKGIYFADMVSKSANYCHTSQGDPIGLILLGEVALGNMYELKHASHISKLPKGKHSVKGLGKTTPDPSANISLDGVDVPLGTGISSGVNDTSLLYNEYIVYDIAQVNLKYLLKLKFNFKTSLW
UNIT_SPEC: °C
ΔTm: 1.93

COMPOUND: O=C(CCCc1nc2ccccc2c(=O)[nH]1)N[C@@H]1CCc2ccccc21
TESTED_TARGET: Poly [ADP-ribose] polymerase 1 (Homo sapiens, UniProt P09874)
UNIT_SPEC: °C
ΔTm: 1.52

COMPOUND: COc1ccccc1CNC(=O)CCc1nc(O)c2ccccc2n1
TESTED_TARGET: Poly [ADP-ribose] polymerase 1 (Homo sapiens, UniProt P09874)
UNIT_SPEC: °C
ΔTm: 1.45

COMPOUND: Cc1ccc(C)c(C(C)NC(=O)CCc2nc3ccccc3c(=O)[nH]2)c1 (racemic)
TESTED_TARGET: Poly [ADP-ribose] polymerase 1 (Homo sapiens, UniProt P09874)
UNIT_SPEC: °C
ΔTm: 2

COMPOUND: O=C(CCc1nc2ccccc2c(=O)[nH]1)NCc1ccc(OC(F)F)cc1
TESTED_TARGET: Poly [ADP-ribose] polymerase 1 (Homo sapiens, UniProt P09874)
UNIT_SPEC: °C
ΔTm: 3.39

COMPOUND: O=C(CCc1nc2ccccc2c(=O)[nH]1)N[C@@H](Cc1ccccc1)C(=O)O
TESTED_TARGET: Poly [ADP-ribose] polymerase 1 (Homo sapiens, UniProt P09874)
UNIT_SPEC: °C
ΔTm: 0.24

COMPOUND: O=C(CCc1nc2ccccc2c(=O)[nH]1)N1CCc2ccccc2C1
TESTED_TARGET: Poly [ADP-ribose] polymerase 1 (Homo sapiens, UniProt P09874)
UNIT_SPEC: °C
ΔTm: 1.15

COMPOUND: C[C@H](NC(=O)CCc1nc2ccccc2c(=O)[nH]1)c1ccccc1F
TESTED_TARGET: Poly [ADP-ribose] polymerase 1 (Homo sapiens, UniProt P09874)
UNIT_SPEC: °C
ΔTm: 0.36

COMPOUND: CCC(=O)[C@H](Cc1ccccc1)NC(=O)CCc1nc2ccccc2c(=O)[nH]1
TESTED_TARGET: Poly [ADP-ribose] polymerase 1 (Homo sapiens, UniProt P09874)
UNIT_SPEC: °C
ΔTm: 1.93

COMPOUND: O=C(CCc1nc2ccccc2c(=O)[nH]1)NC(c1ccc(Cl)cc1)C1CC1 (racemic)
TESTED_TARGET: Poly [ADP-ribose] polymerase 1 (Homo sapiens, UniProt P09874)
UNIT_SPEC: °C
ΔTm: 2.17

###

Species on record: Homo sapiens
Test: Binding affinity to […] (unknown origin) assessed as change in melting temperature by thermal stabilization assay
// ΔTm lookup, one value per entry

COMPOUND: C[C@H](NC(=O)CCc1nc2ccccc2c(=O)[nH]1)c1ccccn1
ΔTm / °C: 0.13
//
COMPOUND: CC(NC(=O)CCc1nc2ccccc2c(=O)[nH]1)c1ccccn1 (racemic)
ΔTm / °C: 0
//
COMPOUND: C[C@H](NC(=O)CCCc1nc2ccccc2c(=O)[nH]1)c1ccccc1
ΔTm / °C: 0.52
//
COMPOUND: O=C(CCc1nc2ccccc2c(=O)[nH]1)NC1CCCc2ccccc21 (stereo not given)
ΔTm / °C: 1.83
//
COMPOUND: C[C@H](NC(=O)CCc1nc2ccccc2c(=O)[nH]1)c1ccc(Cl)cc1
ΔTm / °C: 0.18

###

Organism: Homo sapiens
Experiment: Binding affinity to […] (unknown origin) assessed as change in melting temperature by thermal stabilization assay
Categorized via ΔTm: low = under 0.2 °C, intermediate = from 0.2 °C up to 0.5 °C, high = 0.5 °C and over

COMPOUND: C[C@H](NC(=O)/C=C/c1nc2ccccc2c(=O)[nH]1)c1ccccc1
GROUP_LABEL: intermediate
--
COMPOUND: Cc1ccc(C)c(C(C)NC(=O)CCc2nc3ccccc3c(=O)[nH]2)c1 (racemic)
GROUP_LABEL: intermediate
--
COMPOUND: C[C@@H](NC(=O)Cc1nc2ccccc2c(=O)[nH]1)c1ccccc1
GROUP_LABEL: low
--
COMPOUND: CC(NC(=O)CCc1nc2ccccc2c(=O)[nH]1)c1ccc(-n2ccnc2)cc1 (racemic)
GROUP_LABEL: high
--
COMPOUND: C[C@H](NC(=O)CCc1nc2ccccc2c(=O)[nH]1)c1ccccc1
GROUP_LABEL: low
--
COMPOUND: O=C(/C=C/c1nc2ccccc2c(=O)[nH]1)N[C@H](CO)Cc1ccccc1
GROUP_LABEL: low
--
COMPOUND: COc1ccccc1CNC(=O)CCc1nc(O)c2ccccc2n1
GROUP_LABEL: high
--
COMPOUND: C[C@H](NC(=O)CCc1nc2ccccc2c(=O)[nH]1)c1ccccc1F
GROUP_LABEL: low
--
COMPOUND: O=C(CCc1nc2ccccc2c(=O)[nH]1)NCc1ccccc1Cl
GROUP_LABEL: intermediate
--
COMPOUND: CC[C@H](NC(=O)CCc1nc2ccccc2c(=O)[nH]1)c1ccccc1
GROUP_LABEL: intermediate
--
COMPOUND: O=C(CCCc1nc2ccccc2c(=O)[nH]1)NC(c1ccccc1)c1ccccc1
GROUP_LABEL: intermediate
--
COMPOUND: CC[C@@H](CO)NC(=O)CCc1nc2ccccc2c(=O)[nH]1
GROUP_LABEL: intermediate
--
COMPOUND: Cc1ccc([C@H](C)NC(=O)CCc2nc3ccccc3c(=O)[nH]2)cc1C
GROUP_LABEL: intermediate
--
COMPOUND: C[C@H](NC(=O)CCc1nc2ccccc2c(=O)[nH]1)c1cccc(F)c1
GROUP_LABEL: low
--
COMPOUND: C[C@H](NC(=O)CCc1nc2ccccc2c(=O)[nH]1)c1cccc(C(F)(F)F)c1
GROUP_LABEL: intermediate
--
COMPOUND: O=C(CCc1nc2ccccc2c(=O)[nH]1)NCc1ccccc1O
GROUP_LABEL: high
--
COMPOUND: C[C@H](NC(=O)NCc1nc2ccccc2c(=O)[nH]1)c1ccccc1
GROUP_LABEL: intermediate
--
COMPOUND: C[C@@H](NC(=O)CCCc1nc2ccccc2c(=O)[nH]1)c1ccccc1
GROUP_LABEL: high
--
COMPOUND: O=C(CCCc1nc2ccccc2c(=O)[nH]1)N[C@H](CO)c1ccccc1
GROUP_LABEL: high
--
COMPOUND: O=C(NCc1ccccc1)NCc1nc2ccccc2c(=O)[nH]1
GROUP_LABEL: intermediate
--
COMPOUND: C[C@H](NC(=O)CCc1nc2ccccc2c(=O)[nH]1)c1cccc(Cl)c1
GROUP_LABEL: intermediate
--
COMPOUND: NC(=O)[C@H](Cc1ccccc1)NC(=O)CCc1nc2ccccc2c(=O)[nH]1
GROUP_LABEL: high
--
COMPOUND: O=C(CCc1nc2ccccc2c(=O)[nH]1)N[C@@H](Cc1ccccc1)C(=O)O
GROUP_LABEL: intermediate
--
COMPOUND: CC(NC(=O)CCc1nc2ccccc2c(=O)[nH]1)c1ccc(S(N)(=O)=O)cc1 (racemic)
GROUP_LABEL: high
--
COMPOUND: CC(C)(C)CC(NC(=O)CCc1nc2ccccc2c(=O)[nH]1)c1ccccc1 (racemic)
GROUP_LABEL: intermediate
--
COMPOUND: C[C@H](NC(=O)Cc1nc2ccccc2c(=O)[nH]1)c1ccccc1
GROUP_LABEL: low
--
COMPOUND: C[C@@H](CO)NC(=O)CCc1nc2ccccc2c(=O)[nH]1
GROUP_LABEL: high
--
COMPOUND: O=C(CCc1nc2ccccc2c(=O)[nH]1)NCc1ccc(F)cc1
GROUP_LABEL: high
--
COMPOUND: CC(NC(=O)CCc1nc2ccccc2c(=O)[nH]1)c1ccncc1 (racemic)
GROUP_LABEL: intermediate
--
COMPOUND: O=C(CCCc1nc2ccccc2c(=O)[nH]1)N[C@H]1CCc2ccccc21
GROUP_LABEL: high
--
COMPOUND: O=C(CCc1nc2ccccc2c(=O)[nH]1)NCc1ccccc1
GROUP_LABEL: intermediate
--
COMPOUND: O=C(CCc1nc2ccccc2c(=O)[nH]1)NC(c1ccccc1)c1ccccc1
GROUP_LABEL: intermediate
--
COMPOUND: CON(C)C(=O)[C@H](Cc1ccccc1)NC(=O)CCc1nc2ccccc2c(=O)[nH]1
GROUP_LABEL: low
--
COMPOUND: C[C@@H](NC(=O)CCc1nc2ccccc2c(=O)[nH]1)c1ccccn1
GROUP_LABEL: low
--
COMPOUND: O=C(CCc1nc(O)c2ccccc2n1)NCc1ccccn1
GROUP_LABEL: low
--
COMPOUND: O=C(CCc1nc2ccccc2c(=O)[nH]1)N[C@H](CO)c1ccccc1
GROUP_LABEL: high
--
COMPOUND: C[C@@H](NC(=O)CCc1nc2ccccc2c(=O)[nH]1)c1ccccc1
GROUP_LABEL: intermediate
--
COMPOUND: O=C(CCc1nc2ccccc2c(=O)[nH]1)N[C@@H]1CCc2ccccc21
GROUP_LABEL: high
--
COMPOUND: O=C(CCc1nc2ccccc2c(=O)[nH]1)NCc1ccc(OC(F)F)cc1
GROUP_LABEL: high
--
COMPOUND: C[C@@H](NC(=O)CCc1nc2cc(Cl)ccc2c(=O)[nH]1)c1ccccc1
GROUP_LABEL: intermediate
